Where do the numbers come from? From a collection of fitness landscapes (doi:10.1038/s41467-024-54723-y).

molecular target: TetR (class B, Tn10) (UniProt P04483); experiment: TetR repression strength (sort-seq, GFP reporter) (relative to tetO2 = 1); higher = stronger repression; settings: E. coli
Sequence (P04483 whole entry): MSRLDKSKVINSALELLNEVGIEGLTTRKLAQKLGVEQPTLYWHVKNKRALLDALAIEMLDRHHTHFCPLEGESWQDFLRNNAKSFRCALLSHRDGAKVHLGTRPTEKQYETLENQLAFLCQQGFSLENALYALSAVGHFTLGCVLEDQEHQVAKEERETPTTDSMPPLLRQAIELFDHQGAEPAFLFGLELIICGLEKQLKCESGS
Over roughly 18,000 sequences, “TetR repression strength (sort-seq, GFP reporter)” has its median near 0.23; the highest 2% begin near 0.68. The sample holds the highest values, similar sequences and a random draw of the others, so the mix is not that of the screen.
Classification scheme (TetR repression strength): bottom bin = under 0.2, middle bin = from 0.2 up to 0.4, top bin = 0.4 and over

Query: Kindly state the category for this sequence: TCCCTCGAAGTAGAAGAGA
Result: middle bin

Query: Kindly state the category for this sequence: TCCCAGGTAGTAATAGAGA
Result: top bin

Query: Kindly state the category for this sequence: TCCCGCGGAGTGACGGAGA
Result: middle bin

Query: Kindly state the category for this sequence: TCCCTCATAGTGCTCGAGA
Result: top bin

Query: Kindly state the category for this sequence: TCCCAAATAGTGTGGGAGA
Result: top bin

Query: Kindly state the category for this sequence: TCCCGAGGAGTTGGCGAGA
Result: bottom bin

Query: Kindly state the category for this sequence: TCCCGGGTAGTCTGAGAGA
Result: bottom bin

Query: Kindly state the category for this sequence: TCCCAAATAGTGGGAGAGA
Result: middle bin

Query: Kindly state the category for this sequence: TCCCTTATAGTATCAGAGA
Result: bottom bin

Query: Kindly state the category for this sequence: TCCCTGATAGTGGGGGAGA
Result: bottom bin

Query: Kindly state the category for this sequence: TCCCGGGGAGTTATCGAGA
Result: bottom bin

Query: Kindly state the category for this sequence: TCCCTGAAAGTCACGGAGA
Result: middle bin

Query: Kindly state the category for this sequence: TCCCGTGCAGTGGGAGAGA
Result: bottom bin

Query: Kindly state the category for this sequence: TCCCTGCAAGTTGATGAGA
Result: middle bin

----------
target: TetR (class B, Tn10); assay: TetR repression strength (sort-seq, GFP reporter) (relative to tetO2 = 1); higher = stronger repression; conditions: E. coli
The full ranking holds about 18,000 sequences; the median of “TetR repression strength (sort-seq, GFP reporter)” is about 0.23, and the highest 2% start at about 0.68. Shown is part of a subset that was picked to be rich in the highest values.
Classification scheme (TetR repression strength): lower segment: < 0.2; middle segment: ≥ 0.2 and < 0.3; upper segment: ≥ 0.3

Query: Kindly state the category for this sequence: TCCCGATAAGTAGCGGAGA
Result: middle segment

Query: Kindly state the category for this sequence: TCCCTTTGAGTTATCGAGA
Result: upper segment

Query: Kindly state the category for this sequence: TCCCTTTAAGTCGACGAGA
Result: middle segment

Query: Kindly state the category for this sequence: TCCCAGTTAGTCTTTGAGA
Result: upper segment

Query: Kindly state the category for this sequence: TCCCGTTCAGTGCTAGAGA
Result: upper segment

Query: Kindly state the category for this sequence: TCCCGTTCAGTGATAGAGA
Result: upper segment

Query: Kindly state the category for this sequence: TCCCTGCTAGTGATCGAGA
Result: upper segment

Query: Kindly state the category for this sequence: TCCCCTTCAGTACGAGAGA
Result: middle segment

Query: Kindly state the category for this sequence: TCCCCAGTAGTCTGAGAGA
Result: lower segment

Query: Kindly state the category for this sequence: TCCCATCGAGTCTGAGAGA
Result: middle segment

Query: Kindly state the category for this sequence: TCCCATCCAGTGATAGAGA
Result: upper segment

Query: Kindly state the category for this sequence: TCCCGCGAAGTTGTTGAGA
Result: lower segment

Query: Kindly state the category for this sequence: TCCCTATCAGTCCGAGAGA
Result: upper segment

Query: Kindly state the category for this sequence: TCCCCTCTAGTGGCCGAGA
Result: lower segment

Query: Kindly state the category for this sequence: TCCCAATCAGTGTCAGAGA
Result: upper segment

Query: Kindly state the category for this sequence: TCCCGCTAAGTTTCTGAGA
Result: upper segment

Query: Kindly state the category for this sequence: TCCCTTTGAGTAAATGAGA
Result: upper segment

Query: Kindly state the category for this sequence: TCCCGGTTAGTTGAGGAGA
Result: lower segment

Query: Kindly state the category for this sequence: TCCCTGGCAGTAGGGGAGA
Result: lower segment

Query: Kindly state the category for this sequence: TCCCGTGCAGTGCTAGAGA
Result: upper segment

Query: Kindly state the category for this sequence: TCCCGGCGAGTGGGGGAGA
Result: lower segment

Query: Kindly state the category for this sequence: TCCCGTTAAGTTGCTGAGA
Result: upper segment

Query: Kindly state the category for this sequence: TCCCAACTAGTCCTGGAGA
Result: middle segment

Query: Kindly state the category for this sequence: TCCCGTTAAGTGCCTGAGA
Result: upper segment

Query: Kindly state the category for this sequence: TCCCGTTCAGTGCGAGAGA
Result: lower segment

Query: Kindly state the category for this sequence: TCCCGTGGAGTGCCTGAGA
Result: lower segment

Query: Kindly state the category for this sequence: TCCCATATAGTTTAGGAGA
Result: lower segment

Query: Kindly state the category for this sequence: TCCCAATCAGTCAAAGAGA
Result: upper segment

Query: Kindly state the category for this sequence: TCCCTCAGAGTAAAGGAGA
Result: middle segment

Query: Kindly state the category for this sequence: TCCCGCGAAGTTGCTGAGA
Result: upper segment

Query: Kindly state the category for this sequence: TCCCCCACAGTGTAAGAGA
Result: lower segment

Query: Kindly state the category for this sequence: TCCCAGTTAGTGGGTGAGA
Result: lower segment

Query: Kindly state the category for this sequence: TCCCGGTCAGTGAAGGAGA
Result: middle segment

Query: Kindly state the category for this sequence: TCCCTATCAGTGCCAGAGA
Result: upper segment

Query: Kindly state the category for this sequence: TCCCTGTCAGTGCCAGAGA
Result: upper segment

Query: Kindly state the category for this sequence: TCCCGAGGAGTTATAGAGA
Result: upper segment

Query: Kindly state the category for this sequence: TCCCCTTCAGTCCCAGAGA
Result: upper segment

Query: Kindly state the category for this sequence: TCCCATTCAGTATCGGAGA
Result: lower segment

Query: Kindly state the category for this sequence: TCCCTGATAGTGATCGAGA
Result: upper segment

Query: Kindly state the category for this sequence: TCCCCGTAAGTTCCTGAGA
Result: middle segment

Query: Kindly state the category for this sequence: TCCCAACAAGTGTTCGAGA
Result: lower segment

Query: Kindly state the category for this sequence: TCCCTTTCAGTCCCAGAGA
Result: lower segment

Query: Kindly state the category for this sequence: TCCCTATCAGTCCCAGAGA
Result: upper segment

Query: Kindly state the category for this sequence: TCCCAATCAGTTTAAGAGA
Result: upper segment

Query: Kindly state the category for this sequence: TCCCGTTCAGTTCCTGAGA
Result: upper segment

Query: Kindly state the category for this sequence: TCCCTGGGAGTAAGGGAGA
Result: middle segment

Query: Kindly state the category for this sequence: TCCCTAAAAGTGTAGGAGA
Result: lower segment

Query: Kindly state the category for this sequence: TCCCAGCCAGTTATGGAGA
Result: lower segment

Query: Kindly state the category for this sequence: TCCCGGTAAGTGATGGAGA
Result: upper segment

Query: Kindly state the category for this sequence: TCCCGCCGAGTGGACGAGA
Result: upper segment

Query: Kindly state the category for this sequence: TCCCACTTAGTGCGAGAGA
Result: lower segment

Query: Kindly state the category for this sequence: TCCCGGTCAGTCTGTGAGA
Result: middle segment

Query: Kindly state the category for this sequence: TCCCGTCAAGTGTCCGAGA
Result: middle segment

Query: Kindly state the category for this sequence: TCCCATTCAGTTATAGAGA
Result: upper segment

Query: Kindly state the category for this sequence: TCCCTGCTAGTGATAGAGA
Result: upper segment

Query: Kindly state the category for this sequence: TCCCATACAGTTGAGGAGA
Result: lower segment

Query: Kindly state the category for this sequence: TCCCAATAAGTGTAAGAGA
Result: middle segment

Query: Kindly state the category for this sequence: TCCCGAGTAGTCCTCGAGA
Result: middle segment

Query: Kindly state the category for this sequence: TCCCGGATAGTGTCGGAGA
Result: lower segment

Query: Kindly state the category for this sequence: TCCCGGTCAGTTCCTGAGA
Result: middle segment

----------
biological target: TetR (class B, Tn10); assay: TetR repression strength (sort-seq, GFP reporter) (relative to tetO2 = 1); higher = stronger repression; conditions: E. coli
Over roughly 18,000 sequences, “TetR repression strength (sort-seq, GFP reporter)” has its median near 0.23; the highest 2% begin near 0.68. The entries come from a sample that favours the highest values as a whole.
readout_type: TetR repression strength
Lab note: record just the number, no unit beside it.

Query: For TetR (class B, Tn10), provide TetR repression strength of TCCCTCGAAGTGATCGAGA please.
Result: 0.343

Query: For TetR (class B, Tn10), provide TetR repression strength of TCCCTGGCAGTTCATGAGA please.
Result: 0.199

Query: For TetR (class B, Tn10), provide TetR repression strength of TCCCATGGAGTGTTAGAGA please.
Result: 0.246

Query: For TetR (class B, Tn10), provide TetR repression strength of TCCCGATGAGTTGCTGAGA please.
Result: 0.124

Query: For TetR (class B, Tn10), provide TetR repression strength of TCCCGAGCAGTTGGTGAGA please.
Result: 0.317

Query: For TetR (class B, Tn10), provide TetR repression strength of TCCCGACTAGTAACTGAGA please.
Result: 0.613

Query: For TetR (class B, Tn10), provide TetR repression strength of TCCCTATCAGTGACCGAGA please.
Result: 0.944

Query: For TetR (class B, Tn10), provide TetR repression strength of TCCCGACCAGTGACAGAGA please.
Result: 0.644
